system: PPARg homodimer (NR concentration 180 nM); assay: PBM binding z-score (relative to random genomic background probes); higher = stronger binding; sequences stand for … in GC…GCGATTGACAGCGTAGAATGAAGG
readout type: PBM binding z-score
Answers are plain numbers.

Answered cases to consult:
* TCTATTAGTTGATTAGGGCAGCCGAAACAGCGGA | 0.935
* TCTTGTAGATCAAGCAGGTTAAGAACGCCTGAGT | -0.0997
* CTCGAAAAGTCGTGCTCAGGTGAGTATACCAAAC | 1.15
* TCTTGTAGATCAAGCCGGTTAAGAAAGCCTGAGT | 0.0807
* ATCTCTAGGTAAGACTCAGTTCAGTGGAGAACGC | 1.2

Each sequence below has a recorded value; state its PBM binding z-score.
1. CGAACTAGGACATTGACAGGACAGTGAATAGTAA
2. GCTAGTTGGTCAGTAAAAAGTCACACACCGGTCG
3. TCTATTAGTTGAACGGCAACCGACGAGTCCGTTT
4. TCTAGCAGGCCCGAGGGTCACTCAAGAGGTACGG
5. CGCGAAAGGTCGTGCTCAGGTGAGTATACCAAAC

[0.296, 0.862, 0.735, 0.169, 2.14]

Each sequence below has a recorded value; state its PBM binding z-score.
1. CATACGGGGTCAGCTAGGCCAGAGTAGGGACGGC
2. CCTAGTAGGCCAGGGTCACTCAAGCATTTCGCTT
3. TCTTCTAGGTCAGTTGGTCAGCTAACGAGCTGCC
4. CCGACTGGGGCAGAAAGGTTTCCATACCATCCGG
5. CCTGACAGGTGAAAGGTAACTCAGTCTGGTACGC

2.4
0.886
2.21
-0.677
0.546

Each sequence below has a recorded value; state its PBM binding z-score.
1. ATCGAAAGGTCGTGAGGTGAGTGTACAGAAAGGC
2. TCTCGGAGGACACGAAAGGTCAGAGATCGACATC
3. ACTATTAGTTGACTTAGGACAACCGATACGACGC
4. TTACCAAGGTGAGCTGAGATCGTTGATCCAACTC
5. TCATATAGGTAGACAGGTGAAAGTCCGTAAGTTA
6. AGAACGAGGGCAATGAGTGGATAGCACGGGTGGC
7. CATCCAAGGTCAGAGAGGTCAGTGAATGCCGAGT

1.74
2.63
1.07
-1.58
1.25
-0.143
4.41

Each sequence below has a recorded value; state its PBM binding z-score.
1. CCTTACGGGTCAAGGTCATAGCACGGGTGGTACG
2. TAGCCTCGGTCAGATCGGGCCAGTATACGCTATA
3. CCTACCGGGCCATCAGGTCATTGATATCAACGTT
4. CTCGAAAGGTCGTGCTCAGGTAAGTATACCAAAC
5. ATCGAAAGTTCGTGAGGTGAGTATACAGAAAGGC

1. 2.88
2. -1.18
3. 1.25
4. 1.63
5. 0.342

###

test system: THRa:RXRa (NR concentration 90 nM, RXRa partner concentration 90 nM); assay: PBM binding z-score (relative to random genomic background probes); higher = stronger binding; sequences stand for … in GC…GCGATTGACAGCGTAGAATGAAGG
For each record, write down the corresponding PBM binding z-score.
Numbers only.

* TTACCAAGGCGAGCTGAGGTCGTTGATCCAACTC | 3.13
* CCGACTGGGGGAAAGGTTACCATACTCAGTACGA | 2.14
* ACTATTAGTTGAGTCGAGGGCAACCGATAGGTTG | 2.3
* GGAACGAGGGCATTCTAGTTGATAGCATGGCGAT | 2.54
* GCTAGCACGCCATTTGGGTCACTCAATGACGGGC | 1.5

Each sequence below has a recorded value; state its PBM binding z-score.
1. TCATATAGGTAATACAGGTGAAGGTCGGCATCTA
2. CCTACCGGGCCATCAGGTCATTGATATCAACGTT
3. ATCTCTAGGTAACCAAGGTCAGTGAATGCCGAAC
4. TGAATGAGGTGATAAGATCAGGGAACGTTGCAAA
5. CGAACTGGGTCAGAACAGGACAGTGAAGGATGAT
6. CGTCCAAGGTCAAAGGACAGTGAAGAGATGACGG
7. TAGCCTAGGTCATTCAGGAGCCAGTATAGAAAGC
8. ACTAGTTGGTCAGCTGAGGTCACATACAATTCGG

[1.31, 3.19, 3.31, 1.43, 3.55, 3.76, 2.68, 4.98]

Each sequence below has a recorded value; state its PBM binding z-score.
1. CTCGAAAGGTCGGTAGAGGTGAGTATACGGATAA
2. GCTGATAGGTCAGGTTGGTCAGCTAACGGGTACG
3. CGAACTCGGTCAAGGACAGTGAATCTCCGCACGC
4. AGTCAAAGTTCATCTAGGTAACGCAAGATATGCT
5. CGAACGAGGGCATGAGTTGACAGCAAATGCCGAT
6. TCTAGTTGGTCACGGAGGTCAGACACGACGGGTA

1: 4.38; 2: 1.46; 3: 2.15; 4: 3.08; 5: 1.45; 6: 2.79

Each sequence below has a recorded value; state its PBM binding z-score.
1. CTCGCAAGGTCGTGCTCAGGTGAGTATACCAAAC
2. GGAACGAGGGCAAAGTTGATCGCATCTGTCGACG
3. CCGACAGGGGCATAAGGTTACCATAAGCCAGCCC

3.63
1.19
2.43

Each sequence below has a recorded value; state its PBM binding z-score.
1. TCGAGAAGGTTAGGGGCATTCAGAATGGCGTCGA
2. TCTTGTAGATCAACAGGTGGTTAAGAAAGATCGA
3. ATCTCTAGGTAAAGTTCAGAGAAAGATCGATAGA
4. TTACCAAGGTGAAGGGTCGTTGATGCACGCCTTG

1.12
-0.453
1.13
2.35

###

test system: RARa:RXR (NR concentration 270 nM, RXRa partner concentration 90 nM); test: PBM binding z-score (relative to random genomic background probes); higher = stronger binding; sequences stand for … in GC…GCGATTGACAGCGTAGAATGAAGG
readout type: PBM binding z-score

Each sequence below has a recorded value; state its PBM binding z-score.
1. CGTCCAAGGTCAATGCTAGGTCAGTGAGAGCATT
2. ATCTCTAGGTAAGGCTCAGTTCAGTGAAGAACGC
3. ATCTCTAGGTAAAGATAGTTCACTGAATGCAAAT
4. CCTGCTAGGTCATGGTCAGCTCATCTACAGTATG
5. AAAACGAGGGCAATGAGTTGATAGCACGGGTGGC
6. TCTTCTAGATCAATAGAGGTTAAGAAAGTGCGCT
7. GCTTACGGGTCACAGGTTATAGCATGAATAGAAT

1. 6.05
2. 0.496
3. 1.12
4. 2.4
5. 0.593
6. 1.8
7. 4.84

###

tested on: PPARg:RXRa 90nM:30nM, anti-RXR (NR concentration 90 nM, RXRa partner concentration 30 nM); assay: PBM binding z-score (relative to random genomic background probes); higher = stronger binding; sequences stand for … in GC…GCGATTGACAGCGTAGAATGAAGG
readout type: PBM binding z-score

Answered cases to consult:
• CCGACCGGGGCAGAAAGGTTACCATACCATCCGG = 0.343
• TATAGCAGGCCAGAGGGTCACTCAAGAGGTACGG = 3.12
• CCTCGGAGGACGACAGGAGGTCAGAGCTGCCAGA = -0.215
• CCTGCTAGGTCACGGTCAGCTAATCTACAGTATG = 3.2

Each sequence below has a recorded value; state its PBM binding z-score.
1. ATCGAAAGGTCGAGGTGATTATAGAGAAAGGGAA
2. CTCCAAAGGTCGTGCTCAGGTGAGTATACCAAAC
3. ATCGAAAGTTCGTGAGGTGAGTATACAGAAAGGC
4. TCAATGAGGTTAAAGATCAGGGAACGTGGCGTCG
5. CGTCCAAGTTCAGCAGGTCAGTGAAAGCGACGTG

1. 2.75
2. 3.35
3. 0.655
4. 5.65
5. 0.285

Each sequence below has a recorded value; state its PBM binding z-score.
1. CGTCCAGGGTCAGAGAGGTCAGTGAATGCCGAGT
2. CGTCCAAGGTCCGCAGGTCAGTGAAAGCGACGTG
3. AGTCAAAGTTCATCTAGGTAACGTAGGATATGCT
4. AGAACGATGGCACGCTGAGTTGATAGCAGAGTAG

1. 2.81
2. -0.568
3. 5.55
4. -0.443

Each sequence below has a recorded value; state its PBM binding z-score.
1. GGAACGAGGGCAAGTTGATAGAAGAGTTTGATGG
2. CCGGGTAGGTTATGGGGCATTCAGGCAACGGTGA
3. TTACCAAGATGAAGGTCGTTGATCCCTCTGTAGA
4. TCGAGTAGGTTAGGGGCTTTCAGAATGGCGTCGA
5. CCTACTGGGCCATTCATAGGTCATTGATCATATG
6. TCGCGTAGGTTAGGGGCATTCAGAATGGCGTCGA
7. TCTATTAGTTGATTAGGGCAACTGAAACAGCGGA

1: 0.351; 2: 2.58; 3: 1.72; 4: 1.15; 5: 1.06; 6: 1.41; 7: 2.6
